# assay_text: The toxicity was evaluated against KB cells
# Type: functional
# settings: Homo sapiens, read-out: ED50 (the source's name)
observed_property: pEC50
Expect pEC50 as a plain number equal to -log10 of the molar concentration.

Lab note: measured pEC50 of COc1cc([C@@H]2c3cc4c(cc3[C@H](O)[C@H]3COC(=O)[C@H]23)OCO4)cc(OC)c1OC [PODOFILOX] was 9.70

---

We begin with a simple list: items and their reported pIC50.
# Test system: Plasmodium falciparum
# assay_text: In vitro inhibitory activity against Plasmodium falciparum
# Type: functional, organism-based
Expect pIC50 as a plain number equal to -log10 of the molar concentration.

Examples from the recorded data:
>>> df
                                        mol  observed_property  numeric_result
0  COc1ccc(C(=O)Oc2c(OC)c(OC)cc3c2C(=O)[C@]2(OC)C=C[C@H]3N(c3ccccc3)O2)cc1              pIC50            5.18
1  CCC(=O)Oc1c(OC)c(OC)cc2c1C(=O)[C@]1(OC)C=C[C@H]2N(c2ccccc2)O1              pIC50            5.18
2  COc1cc2c(c(OC(=O)CN3C(=O)c4ccccc4C3=O)c1OC)C(=O)[C@]1(OC)C=C[C@H]2N(c2ccccc2)O1              pIC50            5.21
3  COc1cc2c(c(OC)c1OC)C(=O)[C@]1(OC)C=C[C@H]2N(c2ccccc2)O1              pIC50            5.05
4  COc1cc2c(c(OC(=O)c3ccccc3F)c1OC)C(=O)[C@]1(OC)C=C[C@H]2N(c2ccccc2)O1              pIC50            5.20
5  CCCC(=O)Oc1c(OC)c(OC)cc2c1C(=O)[C@]1(OC)C=C[C@H]2N(c2ccccc2)O1              pIC50            5.41
6  COc1cc2c(c(OC(C)=O)c1OC)C(=O)[C@]1(OC)C=C[C@H]2N(c2ccccc2)O1              pIC50            5.28
7  COc1cc2c(c(OC(=O)COC(C)=O)c1OC)C(=O)[C@]1(OC)C=C[C@H]2N(c2ccccc2)O1              pIC50            5.49
8  COc1cc2c(c(OC(=O)c3ccc(F)cc3)c1OC)C(=O)[C@]1(OC)C=C[C@H]2N(c2ccccc2)O1              pIC50            5.12
9  COc1cc2c(c(OC(=O)c3ccccc3)c1OC)C(=O)[C@]1(OC)C=C[C@H]2N(c2ccccc2)O1              pIC50            5.47

Please find the next molecule below.
Lab note: measured pIC50 of COc1cc2c(c(O)c1OC)C(=O)[C@]1(OC)C=C[C@H]2N(c2ccccc2)O1 was 5.27

Origin of values: ChEMBL document CHEMBL1134140
